Test: ThT fluorescence binding to liposomal peptide constructs
Settings: ThT binding; liposomes DMPC/DMPG/cholesterol/MPLA 9:1:7:0.06, diluted 8-fold; single site fit; read-out: App. Kd
Protocol: • CD spectra were acquired on a Jasco-815 spectropolarimeter (Japan) with a 0.1 cm path length quartz cuvette at 23° C. Measurements were made with a 1.0 nm bandwidth and 0.5 nm resolution. […] A2 ThT Fluorescence. • Fluorescence emission spectra were measured at 25° C. on a Tecan M200 spectrofluorimeter with an excitation of 440 nm. […] A3 Disaggregation Assay Using ThT Fluorescence. • ZnCl2, FeCl3 or CuCl2 (2 μL, 1 mM in H2O) were incubated with liposomes diluted 4-fold in PBS (48 μL) for 2 h at 22° C. […]
K(Palm) = lysine with palmitoylated side chain (X = Palmitoyl)
experimental.readout: Kd (µM)
Numbers only here, please. The scale is µM.

[Q] # input substance: H-K(X)-K(X)-DAKFRHKSGYKVHHQ-K(X)-K(X)-OH ({K(Palm)-K(Palm)}-DAKFRHKSGYKVHHQ-{K(Palm)-K(Palm)-OH}) [Palm1-15(E3K, D7K, E11K), X = Palmitoyl] ; wanted: its Kd
[A] 10.1

[Q] Give its Kd value. Item: H-K(X)-K(X)-DAKFRHKSGYEVHHQ-K(X)-K(X)-OH ({K(Palm)-K(Palm)}-DAKFRHKSGYEVHHQ-{K(Palm)-K(Palm)-OH}) [Palm1-15(E3K, D7K), X = Palmitoyl]
[A] 12.1

[Q] I have this substance here, H-K(X)-K(X)-DAEFRHKSGYEVHHQ-K(X)-K(X)-OH ({K(Palm)-K(Palm)}-DAEFRHKSGYEVHHQ-{K(Palm)-K(Palm)-OH}) [Palm1-15(D7K), X = Palmitoyl] , and I need its recorded Kd.
[A] 8.8

###

experiment: ThT fluorescence binding to liposomal peptide constructs; conditions: relative to ACI-24 (Palm1-15)
K(Palm) = lysine with palmitoylated side chain (X = Palmitoyl)
Mark 1 only when Bmax (% rel. ACI-24) stays strictly below 40%. Values equal to the cut-off are 0.

[Q] Find out if reported Bmax (% rel. ACI-24) for H-K(X)-K(X)-DAKFRHKSGYEVHHQ-K(X)-K(X)-OH ({K(Palm)-K(Palm)}-DAKFRHKSGYEVHHQ-{K(Palm)-K(Palm)-OH}) [Palm1-15(E3K, D7K), X = Palmitoyl] is less than 40%
[A] 1

[Q] Determine if H-K(X)-K(X)-DAEFRHKSGYEVHHQ-K(X)-K(X)-OH ({K(Palm)-K(Palm)}-DAEFRHKSGYEVHHQ-{K(Palm)-K(Palm)-OH}) [Palm1-15(D7K), X = Palmitoyl] shows Bmax (% rel. ACI-24) strictly lower than 40%.
[A] 0

[Q] Criterion: Bmax (% rel. ACI-24) strictly below 40%. Is it met by H-K(X)-K(X)-QHHVEYGSDHRFEAD-K(X)-K(X)-OH [Palm15-1] ({K(Palm)-K(Palm)}-QHHVEYGSDHRFEAD-{K(Palm)-K(Palm)-OH}) [X = Palmitoyl] ?
[A] 1

[Q] In plain terms, does H-K(X)-K(X)-GHEAYHSVERFDDQH-K(X)-K(X)-OH [scPalm15] ({K(Palm)-K(Palm)}-GHEAYHSVERFDDQH-{K(Palm)-K(Palm)-OH}) [X = Palmitoyl] come in under 40% for Bmax (% rel. ACI-24)?
[A] 1

[Q] # TODO verify Bmax (% rel. ACI-24) < 40% strictly for this substance: H-K(X)-K(X)-DAAFRHKSGYEVHHQ-K(X)-K(X)-OH ({K(Palm)-K(Palm)}-DAAFRHKSGYEVHHQ-{K(Palm)-K(Palm)-OH}) [Palm1-15(E3A, D7K), X = Palmitoyl]
[A] 0

[Q] Regarding H-K(X)-K(X)-DAKFRHKSGYKVHHQ-K(X)-K(X)-OH ({K(Palm)-K(Palm)}-DAKFRHKSGYKVHHQ-{K(Palm)-K(Palm)-OH}) [Palm1-15(E3K, D7K, E11K), X = Palmitoyl] , kindly confirm whether its Bmax (% rel. ACI-24) is beneath 40%.
[A] 0
